Provenance of the data: patent US20230348603A1

# system_under_test: T1, Human VSIG4-L-His (human, UniProt Q9Y279 20-283)
# T1 construct: long isoform ECD with His tag; also called hVSIG4-L
# T1 sequence: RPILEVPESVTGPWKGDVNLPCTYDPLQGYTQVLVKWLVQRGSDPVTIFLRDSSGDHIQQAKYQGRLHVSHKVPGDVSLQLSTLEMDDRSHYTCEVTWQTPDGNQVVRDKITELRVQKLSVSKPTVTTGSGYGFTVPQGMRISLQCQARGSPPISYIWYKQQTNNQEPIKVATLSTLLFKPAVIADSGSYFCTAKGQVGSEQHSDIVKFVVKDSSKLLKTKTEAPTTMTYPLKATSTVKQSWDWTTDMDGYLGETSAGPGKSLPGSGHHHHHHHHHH
# assay_protocol: SPR (FJB)
measure_name: Kd (nM)
Number in nM, nothing else.

Value of Kd reported for the binder 14C05 mouse/human chimeric IgG4 (S228P) kappa (antibody, V domains shown) VH: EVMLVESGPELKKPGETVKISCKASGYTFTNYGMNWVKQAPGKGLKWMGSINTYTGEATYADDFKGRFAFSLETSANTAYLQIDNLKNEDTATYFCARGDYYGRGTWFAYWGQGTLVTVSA VL: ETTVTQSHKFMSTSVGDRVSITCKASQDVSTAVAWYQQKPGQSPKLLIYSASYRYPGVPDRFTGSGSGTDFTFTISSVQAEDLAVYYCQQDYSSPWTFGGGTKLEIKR is 1.7
